Hi there, I'd appreciate the recorded Cell_Efficacy for every entry that follows.
studyTarget: UniProt:P30838
Sequence (P30838 whole entry): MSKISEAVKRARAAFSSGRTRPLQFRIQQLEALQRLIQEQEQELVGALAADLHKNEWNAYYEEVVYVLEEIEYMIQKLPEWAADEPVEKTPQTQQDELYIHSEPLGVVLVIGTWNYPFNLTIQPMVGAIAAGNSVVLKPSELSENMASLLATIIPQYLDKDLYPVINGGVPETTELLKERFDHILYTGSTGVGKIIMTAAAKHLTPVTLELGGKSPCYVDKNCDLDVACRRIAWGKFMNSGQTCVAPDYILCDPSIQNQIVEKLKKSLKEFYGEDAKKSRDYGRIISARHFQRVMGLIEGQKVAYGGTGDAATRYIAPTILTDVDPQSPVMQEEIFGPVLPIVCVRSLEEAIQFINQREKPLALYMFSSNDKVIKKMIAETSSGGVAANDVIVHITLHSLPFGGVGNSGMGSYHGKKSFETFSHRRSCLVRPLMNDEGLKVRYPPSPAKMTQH
experimentNotes: Cellular ALDEFLUOR assay in OE19 cells (preferential ALDH3A1 expression)
measurementContext: Table S5, OE19 cells
Give the value as a plain number.

Q) Give its Cell_Efficacy value. Item: O=C(NCc1cccc(Cl)c1)c1csc(N2CCN(c3cccc(C(F)(F)F)c3)CC2)n1
A) -88.39

Q) For the compound shown here, O=C(NCc1cccc(N2CCC[S+]2(=O)[O-])c1)c1csc(N2CCN(c3cccc(C(F)(F)F)c3)CC2)n1 , give the reported Cell_Efficacy.
A) 0.00

Q) I'd like to know its Cell_Efficacy. The compound in question is O=C(NCc1cccc(N2CCC2=O)c1)c1csc(N2CCN(c3cccc(C(F)(F)F)c3)CC2)n1
A) -81.94

Q) Requested field: Cell_Efficacy. Item: O=C(NCc1ccc2cc(Cl)ccc2c1)c1csc(N2CCN(c3cccc(C(F)(F)F)c3)CC2)n1
A) -69.34

Q) What Cell_Efficacy value was documented for this compound, O=C(NCc1ccc(S(F)(F)(F)(F)F)cc1)c1csc(N2CCN(c3cccc(C(F)(F)F)c3)CC2)n1 ?
A) -85.12

Q) Fill blank: measured Cell_Efficacy of the compound N#Cc1ccc(CNC(=O)c2csc(N3CCN(c4cccc(C(F)(F)F)c4)CC3)n2)cc1F is ____.
A) -101.81

Q) Given O=C(NCc1ccc(C#CC2CC2)cc1)c1csc(N2CCN(c3cccc(C(F)(F)F)c3)CC2)n1 , state its recorded Cell_Efficacy.
A) -60.41

Q) Quick one: Cell_Efficacy for O=C(NCc1ccc(C(F)F)c(F)c1)c1csc(N2CCN(c3cccc(C(F)(F)F)c3)CC2)n1 ?
A) -105.03

Q) Could you tell me which Cell_Efficacy is on file for O=C(NCc1cccc(CC(F)(F)F)c1)c1csc(N2CCN(c3cccc(C(F)(F)F)c3)CC2)n1 ?
A) -116.21

Q) Could you tell me which Cell_Efficacy is on file for Cc1ccc(C)n1-c1ccc(CNC(=O)c2csc(N3CCN(c4cccc(C(F)(F)F)c4)CC3)n2)cc1 ?
A) -23.84

Q) GET /values?readout=Cell_Efficacy&item= O=C(NCc1ccc(C(F)(F)F)c(Cl)c1)c1csc(N2CCN(c3cccc(C(F)(F)F)c3)CC2)n1
A) -99.51

Q) Field request: Cell_Efficacy | item: O=C(NCc1ccc2c(c1)CCC2)c1csc(N2CCN(c3cccc(C(F)(F)F)c3)CC2)n1
A) -74.47

Q) Would you mind telling me what Cell_Efficacy value was observed for O=C(Nc1ccc(CNC(=O)c2csc(N3CCN(c4cccc(C(F)(F)F)c4)CC3)n2)cc1)c1ccncc1 ?
A) -125.53

Q) I have this compound here, O=C(Nc1ccc(CNC(=O)c2csc(N3CCN(c4cccc(C(F)(F)F)c4)CC3)n2)cc1)c1ccc(F)cc1 , and I need its recorded Cell_Efficacy.
A) -85.75

Q) I have this compound here, O=C(NCc1cc(F)cc(Br)c1)c1csc(N2CCN(c3cccc(C(F)(F)F)c3)CC2)n1 , and I need its recorded Cell_Efficacy.
A) -85.43

Q) Which Cell_Efficacy value belongs to COc1cc(C)cc(CNC(=O)c2csc(N3CCN(c4cccc(C(F)(F)F)c4)CC3)n2)c1 ?
A) -91.56

Q) Return reported Cell_Efficacy; argument: Cc1ccc(CNC(=O)c2csc(N3CCN(c4cccc(C(F)(F)F)c4)CC3)n2)cc1C(F)(F)F
A) -100.81

Q) # lookup: Cell_Efficacy of O=C(NCCc1cccc(OCCCc2ccccc2)c1)c1csc(N2CCN(c3cccc(C(F)(F)F)c3)CC2)n1
A) -92.16

Q) Using the record for Cc1cc(CNC(=O)c2csc(N3CCN(c4cccc(C(F)(F)F)c4)CC3)n2)ccc1Cl , report its Cell_Efficacy.
A) -81.01

Q) Which measured Cell_Efficacy value corresponds to O=C(NCc1ccc(SC(F)(F)F)cc1)c1csc(N2CCN(c3cccc(C(F)(F)F)c3)CC2)n1 ?
A) -89.96

Q) What measured Cell_Efficacy goes with O=C(NCc1cccc(N2CCCC2=O)c1)c1csc(N2CCN(c3cccc(C(F)(F)F)c3)CC2)n1 ?
A) 23.55

Q) Reported Cell_Efficacy for O=C(NCc1c(Cl)cccc1Br)c1csc(N2CCN(c3cccc(C(F)(F)F)c3)CC2)n1 : what is it?
A) 0.00

Q) Would you kindly share the measured Cell_Efficacy for N#CSc1ccc(NC(=O)c2csc(N3CCN(c4cccc(C(F)(F)F)c4)CC3)n2)c(F)c1 ?
A) -75.54

Q) Form field: reported Cell_Efficacy of O=C(NCc1ccc(N2CCNC2=O)cc1)c1csc(N2CCN(c3cccc(C(F)(F)F)c3)CC2)n1
A) -130.58

Q) Query (compound): COc1cc(CNC(=O)c2csc(N3CCN(c4cccc(C(F)(F)F)c4)CC3)n2)ccc1F ; field requested: Cell_Efficacy
A) 0.00

Q) I have this compound here, CC(C)(O)c1ccc(CNC(=O)c2csc(N3CCN(c4cccc(C(F)(F)F)c4)CC3)n2)cc1 , and I need its recorded Cell_Efficacy.
A) -68.37

Q) Could you tell me which Cell_Efficacy is on file for CC1(C)Oc2ccc(CNC(=O)c3csc(N4CCN(c5cccc(C(F)(F)F)c5)CC4)n3)cc2O1 ?
A) -76.04

Q) # input compound: N#Cc1cccc(CNC(=O)c2csc(N3CCN(c4cccc(C(F)(F)F)c4)CC3)n2)c1 ; wanted: its Cell_Efficacy
A) -104.84

Q) Which Cell_Efficacy reading was recorded for the compound O=C(NCc1cccc(COc2ccccc2)c1)c1csc(N2CCN(c3cccc(C(F)(F)F)c3)CC2)n1 ?
A) -79.42

The reported numbers originate from paper PMC13266984.
